biological target: KRAS WT (Homo sapiens (Human), UniProt P01116+P62937); experiment: Ras-Raf (BRAF RBD) disruption / FRET / MOA assay, KRAS WT; assay type: biochemical; conditions: read-out: IC50* KRAS WT FRET data
Sequence (P01116-2 other isoform, or with tags, fused parts or gaps): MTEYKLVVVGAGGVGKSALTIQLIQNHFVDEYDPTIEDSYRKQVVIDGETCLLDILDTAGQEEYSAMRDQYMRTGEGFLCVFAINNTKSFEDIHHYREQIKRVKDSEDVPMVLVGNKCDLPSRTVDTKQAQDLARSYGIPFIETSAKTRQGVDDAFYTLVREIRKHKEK
Sequence (P62937 whole entry): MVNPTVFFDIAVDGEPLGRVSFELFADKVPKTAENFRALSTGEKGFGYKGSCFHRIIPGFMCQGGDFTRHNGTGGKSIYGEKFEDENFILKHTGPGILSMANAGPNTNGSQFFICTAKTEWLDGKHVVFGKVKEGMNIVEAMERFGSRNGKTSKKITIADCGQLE
PARAMETER: IC50

Here is how some compounds turned out for IC50.
input: Request the reported IC50 associated with C=CC(=O)N(C)CCCC(=O)N(C)[C@H](C(=O)N[C@H]1Cc2cc(O)cc(c2)-c2ccc3c(c2)c(c(-c2cccnc2COC)n3CC)CC(C)(C)COC(=O)[C@@H]2CCCN(N2)C1=O)C(C)C
output: 100 to 1000 nM

input: Request the reported IC50 associated with C=CC(=O)N1CCN(C(=O)N(C)[C@H](C(=O)N[C@H]2Cc3nc(cs3)-c3ccc4c(c3)c(c(-c3cccnc3[C@H](C)OC)n4CC)CC(C)(C)COC(=O)[C@@H]3CCCN(N3)C2=O)C(C)C)[C@@H]2CC[C@@H]21 (atropisomer, axis not shown)
output: 100 to 1000 nM

input: Request the reported IC50 associated with CCn1c(-c2cccnc2[C@H](C)OC)c2c3cc(ccc31)-c1csc(n1)C[C@H](NC(=O)[C@H](C(C)C)N(C)C(=O)N1CCN(C(=O)C#CC(C)(C)N(C)C)CC1)C(=O)N1CCC[C@H](N1)C(=O)OCC(C)(C)C2 (atropisomer, axis not shown)
output: 10 to 100 nM

input: Request the reported IC50 associated with C=CC(=O)N1C[C@@H](C(=O)N(C)[C@H](C(=O)N[C@H]2Cc3cccc(c3)-c3ccc4c(c3)c(c(-c3cccnc3[C@H](C)OC)n4CC)CC(C)(C)COC(=O)[C@@H]3CCCN(N3)C2=O)C(C)C)C(C)(C)C1 (atropisomer, axis not shown)
output: 1000 to 10000 nM

input: Request the reported IC50 associated with CCn1c(-c2cccnc2[C@H](C)OC)c2c3cc(ccc31)N1CCO[C@@H](C[C@H](NC(=O)[C@H](C(C)C)N(C)C(=O)C3(F)CCN(C(=O)/C=C/CN(C)C)CC3)C(=O)N3CCC[C@H](N3)C(=O)OCC(C)(C)C2)C1 (atropisomer, axis not shown)
output: 1000 to 10000 nM

input: Request the reported IC50 associated with CO[C@@H](C)c1ncccc1-c1c2c3cc(ccc3n1CC(F)(F)F)-c1csc(n1)C[C@H](NC(=O)[C@H](C(C)C)N(C)C(=O)N1C[C@@H]3OCCN(C(=O)/C=C/C(F)F)[C@@H]3C1)C(=O)N1CCC[C@H](N1)C(=O)OCC(C)(C)C2 (atropisomer, axis not shown)
output: 100 to 1000 nM

input: Request the reported IC50 associated with C=CC(=O)N1CCC2(CCCN(C(=O)N(C)[C@H](C(=O)N[C@H]3Cc4nc(cs4)-c4ccc5c(c4)c(c(-c4cccnc4[C@H](C)OC)n5CC)CC(C)(C)COC(=O)[C@@H]4CCCN(N4)C3=O)C(C)C)C2)CC1 (atropisomer, axis not shown)
output: 100 to 1000 nM

---
input: Request the reported IC50 associated with C=CC(=O)N1CCC12CN(C(=O)N(C)[C@H](C(=O)N[C@H]1Cc3nc(cs3)-c3ccc4c(c3)c(c(-c3cccnc3[C@H](C)OC)n4CC)CC(C)(C)COC(=O)[C@@H]3CCCN(N3)C1=O)C(C)C)C2 (atropisomer, axis not shown)
output: 100 to 1000 nM

Values from patent US11566007B2
